tested on: recombinant A549 cell line with HRE-controlled luciferase reporter; test: Cellular, functional in vitro test: luciferase reporter under hypoxia-responsible elements in recombinant A549 cell line; format: cell-based; conditions: Homo sapiens, luciferase light signal six to 24 hours after addition of test substance
pEC50: −log10 of the molar value. Counter-ions that a name gives are not always drawn.
Label criterion met when pEC50 is at or above 5; otherwise label criterion not met.

O=C(CCn1cc(Cl)cn1)NCc1ccnc(-n2[nH]cc(-c3cccnc3)c2=O)c1 [Example 50] :: criterion met

Query block: // inclusive: pEC50 at least 5? input: O=c1c(-c2cccnc2)c[nH]n1-c1ccccn1 [Example 6]
Result block: criterion met

Query block: What would you report for O=C(NCc1ccnc(-n2[nH]cc(-c3cccnc3)c2=O)c1)c1ccccc1 [Example 48, hydrochloride] ?
Result block: criterion not met

Query block: Next compound: Cc1ccnc(-n2[nH]cc(-c3ccc(C#N)nc3)c2=O)c1 [Example 34, hydrochloride]
Result block: criterion met

Query block: Same again, this time with Cc1ncccc1-c1c[nH]n(-c2ccccn2)c1=O [Example 26]
Result block: criterion met

Query block: Lookup NCc1ccnc(-n2[nH]cc(-c3cccnc3)c2=O)c1 [Example 35, dihydrochloride]
Result block: criterion not met

Hello, the source for this data is patent US9085572B2, in case you need it.
